Data credit: PubChem BioAssay AID1159580

# assay summary: chemical genetic growth profiling, strain panel (AID 1159580);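 also: tested at 20 µM; growth read once vehicle control cultures reached saturation at 30 °C; 1 = growth at the plate median or of vehicle wells; lower values mean less growth of the strain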
# reported conditions: S. cerevisiae deletion strains, growth OD, locus YKL085W, strain MDH1 (second series), active compounds read low
Out of some 5,500 compounds screened, about 2,000 (36%) were called active. Inconclusive results (about 18%) are left out. This is one part of the list.
reported metric: normalized growth
One number for each entry.

Completed entries (count: 4):
I'd like to know its normalized growth. The compound in question is c1ccc2c(c1)sc1ccccc12
0.971

Entry under review: CC1COc2c(N3CCN(C)CC3)c(F)cc3c(=O)c(C(=O)O)cn1c23 (centres undefined) . Reported normalized growth?
1

Any idea what its normalized growth is? The compound is CC[C@@]1(O)C[C@H](O)c2c(cc3c(c2O)C(=O)c2c(O)ccc(O)c2C3=O)[C@H]1C(=O)OC
0.818

Find the recorded normalized growth belonging to O=C(OCC(O)CO)c1ccccc1Nc1ccnc2cc(Cl)ccc12 (centres undefined) and report it.
0.975

Go through the list and state normalized growth for each entry.
1. CC[C@H]1OC(=O)[C@H](C)[C@@H](O[C@H]2C[C@@](C)(OC)[C@@H](O)[C@H](C)O2)[C@H](C)[C@@H](O[C@@H]2O[C@H](C)C[C@H](N(C)C)[C@H]2O)[C@](C)(OC)C[C@@H](C)C(=O)[C@H](C)[C@@H](O)[C@]1(C)O
2. CCn1cc(C(=O)O)c(=O)c2cc(F)c(N3CCNCC3)nc21
3. O=C(O)CCCc1ccc(N(CCCl)CCCl)cc1
4. O=C(O)c1cc2cc(F)ccc2[nH]1
5. CC1CCc2cc(F)cc3c(=O)c(C(=O)O)cn1c23 (centres undefined)

[0.978, 1.01, 0.942, 1.01, 0.974]

* * *

# assay summary: chemical genetic growth profiling, strain panel (AID 1159580)
# reported conditions: S. cerevisiae deletion strains, growth OD, locus YMR219W, strain ESC1, active compounds read low
In all, about 5,500 compounds went through this assay and about 2,000 (36%) were called active. Inconclusive results (about 18%) are left out. Some of the results follow.
reported metric: normalized growth
Give bare numbers.

// below: answered molecules
What normalized growth value was documented for this molecule, Cc1onc(-c2c(Cl)cccc2Cl)c1-c1nc(-c2ccc3c(c2)OCCO3)cs1 ?
1

For O=C(O)CSCc1ccccc1 , what is its reported normalized growth?
0.997

Give normalized growth for each of the items listed below.
1. COc1c(Br)cc([N+](=O)[O-])c(OC)c1C(N)=O
2. O=C1c2ccccc2C(=O)C1(c1ccccc1)[N+](=O)[O-]
3. Cc1oc(C(C)(C)C)cc1C(=O)Nc1ccc([N+](=O)[O-])cc1
4. COc1ccc(/C=C2\CC/C(=C\c3ccc(OC)c(OC)c3)C2=O)cc1OC

[1.03, 0.832, 0.997, 0.995]

* * *

# assay summary: chemical genetic growth profiling, strain panel (AID 1159580);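 also: tested at 20 µM; growth read once vehicle control cultures reached saturation at 30 °C; 1 = growth at the plate median or of vehicle wells; lower values mean less growth of the strain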
# reported conditions: S. cerevisiae deletion strains, growth OD, locus YMR058W, strain fet3
Among all 5,500 compounds or so, about 2,000 (36%) were called active. About 18% were inconclusive and are not listed. Rule as the data show it: active = normalized growth mostly below about 0.91 (no sharp cut-off); inconclusive = no clear call, values can overlap the other calls; inactive = mostly above about 0.92. The list shows a part of the results.
Respond only with the outcome that fits, drawn from class 1 (active), class 0 (inactive)

See these solved cases before continuing.
Any idea what this test logged for Oc1ccc2c(c1)O[C@H](c1ccc(O)c(O)c1)[C@@H](O)C2 ?
class 0

Record request — test call for CCC(C)C(=O)O[C@@H]1C[C@@]2(C)[C@H](c3ccoc3)OC(=O)CC23OC2(C)OC34[C@H](OC(=O)C(C)C)[C@@]3(O)[C@@H](OC(=O)C5(C)OC5C)[C@@]5(C)C[C@]3(O)[C@@](C)([C@H]5CC(=O)OC)C14O2 (stereo partly specified)
class 0

How was O=C1C(Cl)=C(Cl)C(=O)C(Cl)=C1Cl classified in this test?
class 0

// param item: O=C(O[C@@H]1Cc2c(O)cc(O)cc2O[C@@H]1c1cc(O)c(O)c(O)c1)c1cc(O)c(O)c(O)c1 ; yields the recorded call
class 1

Per the records of this test, what outcome belongs to COc1cc([C@@H]2c3cc4c(cc3[C@@H](O)C3COC(=O)C32)OCO4)cc(OC)c1O (stereo partly specified) ?
class 0

Look up the recorded call for COc1ccc2c(c1)OC/C(=C/c1ccc(OC)c(OC)c1)C2=O in this test.
class 1

Assay outcome for COC(=O)/C=C/C(C)=C/C=C/C(C)=C/C=C/C=C(C)/C=C/C=C(C)/C=C/C(=O)O : what was it?
class 0

Recorded call for COC(=O)c1cc(=O)c(O)c2c(O)c(O)ccc2c1 ?
class 1

Next:
Hi, do you know how C[n+]1c2cc(N)ccc2cc2ccc(N)cc21 came out in this test?
class 1

Tell me the assay call for C=CCc1ccc(O)c(OC)c1 please.
class 0

Status in this test for O=C(O[C@@H]1Cc2c(O)cc(O)cc2O[C@@H]1c1ccc(O)c(O)c1)c1cc(O)c(O)c(O)c1 ?
class 1

Tell me the recorded outcome of this test for CCCCNC(=O)NS(=O)(=O)c1ccc(C)cc1 .
class 0

For OCCc1ccccc1 , what call appears in the results of this test?
class 0

Which outcome was entered for the compound Oc1cc(O)c2c(c1)O[C@H](c1ccc(O)c(O)c1)[C@@H](O)C2 in this test?
class 0

* * *

# assay summary: chemical genetic growth profiling, strain panel (AID 1159580);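 also: tested at 20 µM; growth read once vehicle control cultures reached saturation at 30 °C; 1 = growth at the plate median or of vehicle wells; lower values mean less growth of the strain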
# reported conditions: S. cerevisiae deletion strains, growth OD, locus YCL029C, strain bik1, active compounds read low
About 2,000 (36%) of roughly 5,500 compounds were called active. Roughly 18% stayed inconclusive and do not appear here. The list shows a part of the results.
Kindly supply the reported normalized growth values for the records listed here.

Could you share which normalized growth value was measured for O=C1C(Cl)=C(Cl)C(=O)C(Cl)=C1Cl ?
0.929 (inactive)

What does the data say about its normalized growth? Entry: CC(C)NCC(O)COc1cccc2[nH]ccc12 (configuration not stated)
0.993 (inactive)

Can you look up the measured normalized growth of O=C(O)/C=C/c1ccc(O)c(O)c1 for me?
1.01 (inactive)

Dear colleague, I am looking for the recorded normalized growth of the following molecule: O=C(OCC(O)CO)c1ccccc1Nc1ccnc2cc(Cl)ccc12 (configuration not stated)
0.961 (inactive)

Tell me the measured normalized growth of CC[C@@]1(O)C[C@H](O)c2c(cc3c(c2O)C(=O)c2c(O)ccc(O)c2C3=O)[C@H]1C(=O)OC , please.
0.873 (active)

Please give normalized growth for each item listed below.
1. CCCCC[C@H]1C(=O)O[C@H](C)[C@H](NC(=O)c2cccc(NC=O)c2O)C(=O)O[C@@H](C)[C@@H]1OC(=O)CC(C)C
2. COc1ccc(-c2coc3cc(OC)ccc3c2=O)cc1
3. C#CCN(C)Cc1ccccc1
4. CCCCCCCCCCC[C@@H](C[C@H]1OC(=O)[C@H]1CCCCCC)OC(=O)[C@@H](CC(C)C)NC=O
5. COc1ccc2c(c1)OC1(O)COc3cc(OC)c(OC)cc3C1=C2 (configuration not stated)
6. CCC1(O)CC(OC2CC(N(C)C)C(OC3CC(O)C(OC4CCC(=O)C(C)O4)C(C)O3)C(C)O2)c2c(cc3c(c2O)C(=O)c2c(O)cccc2C3=O)C1C(=O)OC (configuration not stated)
7. CN1CCC(OC(c2ccccc2)c2ccccc2)CC1
8. CN(C)CCN(Cc1cccs1)c1ccccn1

1. 0.922 (inactive)
2. 0.929 (inactive)
3. 1.02 (inactive)
4. 1.03 (inactive)
5. 0.981 (inactive)
6. 1 (inactive)
7. 0.995 (inactive)
8. 1.02 (inactive)

* * *

Could you please report measured normalized growth for the items listed next?
# assay summary: chemical genetic growth profiling, strain panel (AID 1159580);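 also: tested at 20 µM; growth read once vehicle control cultures reached saturation at 30 °C; 1 = growth at the plate median or of vehicle wells; lower values mean less growth of the strain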
# reported conditions: S. cerevisiae deletion strains, growth OD, locus YPL256C, strain CLN2, active compounds read low
Out of some 5,500 compounds screened, about 2,000 (36%) were called active. Not shown: some 18% with an inconclusive outcome. Some of the results follow.
Numbers only.

Example cases with answers are listed next.
# input molecule: COC(=O)c1cc(=O)c(O)c2c(O)c(O)ccc2c1 ; wanted: its normalized growth
0.787

Give the measured normalized growth of CCn1cc(C(=O)O)c(=O)c2cc(F)c(N3CCNCC3)nc21 .
1.04

Which normalized growth value belongs to COc1cc(Cl)ccc1N/N=C(/C#N)C(N)=O ?
0.231

Quick check: normalized growth of COc1ccc(-c2coc3cc(O)ccc3c2=O)cc1 ?
0.922

Name the reported normalized growth value associated with the molecule OC[C@@H](O)[C@@H](O)[C@H](O)[C@@H](O)CO
1.01

Name the recorded normalized growth for CC1COc2c(N3CCN(C)CC3)c(F)cc3c(=O)c(C(=O)O)cn1c23 (configuration not stated) .
1

For each of the molecules below, state normalized growth.
1. COc1ccc(C(CC(=O)c2ccccc2)Sc2ccccc2N)cc1OC (configuration not stated)
2. Cc1[nH]c2ccccc2c1CN(C)C
3. COc1ccc(OC)c(C(O)CNC(=O)CN)c1 (configuration not stated)

0.899
0.991
1.01

For each of the molecules below, state normalized growth.
1. Cc1c(C(=O)Sc2ccc(F)cc2F)sc2nc(C(F)(F)F)nn12
2. CN(C)CCN(Cc1ccccc1)c1ccccn1
3. COc1ccc(-c2coc3cc(OC)ccc3c2=O)cc1
4. COc1cccc(C2CCN(C(=O)c3cccc4ccccc34)CC2)c1
5. Oc1cc(O)c2c(c1)O[C@H](c1ccc(O)c(O)c1)[C@H](O)C2

[0.124, 0.974, 0.968, 0.942, 0.98]

// batch mode: one normalized growth value per listed entry
1. COc1c(N2CCNC(C)C2)c(F)cc2c(=O)c(C(=O)O)cn(C3CC3)c12 (configuration not stated)
2. CC(=O)c1ccc(Cl)c(NS(=O)(=O)c2cc(Cl)c(Cl)cc2Cl)c1
3. CC1CCc2cc(F)cc3c(=O)c(C(=O)O)cn1c23 (configuration not stated)
4. CC1(C)CC(=O)C=C(Sc2nc3ccccc3o2)C1
5. CCOC(=O)C1C(c2c(F)cccc2Cl)C(C(=O)OCC)C(O)(C(F)(F)F)NC1(O)C(F)(F)F (configuration not stated)
6. C[C@@H]1O[C@@H](O[C@H]2[C@H](Oc3cc(O)c4c(=O)cc(-c5ccc(O)cc5)oc4c3)O[C@H](CO)[C@@H](O)[C@@H]2O)[C@H](O)[C@H](O)[C@H]1O

1: 0.956; 2: 0.664; 3: 0.974; 4: 0.967; 5: 0.935; 6: 1

Give one value of normalized growth per listed molecule.
1. CNCCC(Oc1ccc(C(F)(F)F)cc1)c1ccccc1 (configuration not stated)
2. C[n+]1c2cc(N)ccc2cc2ccc(N)cc21
3. COc1ccc(-c2coc3cc(O)ccc3c2=O)c(O)c1O
4. CC(C)(C)c1ccc(C(=N)SC(C(=O)C(F)(F)F)c2ccccc2)cc1 (configuration not stated)
5. CN(C)CCCC1(c2ccc(F)cc2)OCc2cc(C#N)ccc21 (configuration not stated)
6. CSc1nc2cc(Oc3cccc(Cl)c3Cl)c(Cl)cc2[nH]1
7. O=[N+]([O-])c1ccc(ON=C2CCCCC2)c([N+](=O)[O-])c1

1: 1.06; 2: 0.903; 3: 1.02; 4: 0.846; 5: 1.04; 6: 0.138; 7: 0.765
